Each entry below lists one item and its recorded T/C value.
system: Nude mice, LX-1 lung xenograft intrarenal, tumor weight T/C; assay: NCI In Vivo Anticancer Drug Screen. Data for tumor model Human Lung LX-1 Xenograft (intrarenal inoculation) in NU/NU BALB/C (nude) mice; details: endpoint: mean tumor weight change; dose: 1200.0 mg/kg/injection; schedule: Q04DX003 (sc); vehicle: saline with Tween-80; higher = larger tumour
Results filed as inconclusive are left out.

Answered cases to consult:
CC(/C=C/c1ccccc1)=Nc1ccccc1	83 % of control
Oc1cc2ccccc2c(-c2c(O)c(O)cc3ccccc23)c1O	95 % of control

Recorded result, c1cc(OCC2CO2)ccc1OCC1CO1 (stereo not drawn) , T/C: 114 % of control

Data origin, for the record: PubChem BioAssay AID266
